Where do the numbers come from? From the MegaScale stability set (Tsuboyama et al. 2023).

B1: 6NMW (parent)
chain: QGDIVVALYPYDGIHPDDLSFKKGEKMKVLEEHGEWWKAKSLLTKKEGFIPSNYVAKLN

Variants of: B1
Experiment: folding stability dG (cDNA display proteolysis); higher = more stable
Details: PBS, room temperature
ATTRIBUTE MEASURED: folding stability dG
Form entry: enter the amount, then its unit.

Below: 8 variants and their reported folding stability dG.
N53D 3.14 kcal/mol
L19N -0.23 kcal/mol
P16L 2.7 kcal/mol
W37Q 1.99 kcal/mol
L58C 3.88 kcal/mol
E32H 3.54 kcal/mol
Q1E 3.97 kcal/mol
Y54G 0.76 kcal/mol

Ask | Requested read-out: folding stability dG. Entry: `S41N`
Reply | 1.9 kcal/mol

Ask | Same again, this time with `T44V`
Reply | 0.057 kcal/mol

Ask | Same again, this time with `K57H`
Reply | 3.25 kcal/mol

Ask | Same again, this time with `H15P`
Reply | 3.63 kcal/mol

Ask | Same again, this time with `L42A`
Reply | 0.615 kcal/mol

Ask | Same again, this time with `K23I`
Reply | 2.95 kcal/mol

Ask | Same again, this time with `L43S`
Reply | 3.38 kcal/mol

Ask | Same again, this time with `Y54D`
Reply | -0.435 kcal/mol

Ask | Same again, this time with `L8M`
Reply | 2.78 kcal/mol

Ask | Same again, this time with `V5I`
Reply | 2.37 kcal/mol

Ask | Same again, this time with `G48H`
Reply | -0.819 kcal/mol

Ask | Same again, this time with `W36C`
Reply | 3.06 kcal/mol

Ask | Same again, this time with `E25G`
Reply | -0.389 kcal/mol

Ask | Same again, this time with `A7T`
Reply | 1.07 kcal/mol

Ask | Same again, this time with `K22A`
Reply | 3.17 kcal/mol

Ask | Same again, this time with `K23C`
Reply | 3.59 kcal/mol

Ask | Same again, this time with `L8S`
Reply | 0.987 kcal/mol

Ask | Same again, this time with `S41A`
Reply | 1.22 kcal/mol

Ask | Same again, this time with `L8E`
Reply | 0.697 kcal/mol

Ask | Same again, this time with `L58R`
Reply | 1.73 kcal/mol

Ask | Same again, this time with `S41I`
Reply | 1.28 kcal/mol

Ask | Same again, this time with `L58H`
Reply | 2.43 kcal/mol
